Documented pIC50 across a set of molecules
Target: Human DP1 receptor (Homo sapiens (Human))
Sequence (Q13258 whole entry): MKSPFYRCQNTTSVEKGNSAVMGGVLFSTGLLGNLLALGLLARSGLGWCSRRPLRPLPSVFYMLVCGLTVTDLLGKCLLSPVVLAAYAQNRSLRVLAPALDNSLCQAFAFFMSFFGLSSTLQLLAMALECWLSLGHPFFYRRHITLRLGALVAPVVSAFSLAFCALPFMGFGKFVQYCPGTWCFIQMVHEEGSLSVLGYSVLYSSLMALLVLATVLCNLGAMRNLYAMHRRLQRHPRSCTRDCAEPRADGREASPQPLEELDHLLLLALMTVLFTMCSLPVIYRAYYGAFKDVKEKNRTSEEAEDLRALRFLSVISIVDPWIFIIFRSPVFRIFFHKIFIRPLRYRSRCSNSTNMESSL
Experiment: Human DP1 inhibitory activity in DP1-expressing cell (PGD2-induced cAMP)
Type: cell-based
Conditions: category of cAMP IC50, human DP1 receptor expressing Jurkut cell
pIC50: −log10 of the molar value.
measuredMetric: pIC50

- COC[C@H]1C[C@@H](n2nc(CC(=O)O)c3ccc(F)cc32)CN1S(=O)(=O)c1ccc(OC(C)C)cc1: > 7.00
- COc1ccc(S(=O)(=O)N2C[C@@H](C)[C@@H](n3nc(CC(=O)O)c4ccccc43)C2)cn1: 5.30 to 7.00
- CC(C)Oc1ccc(S(=O)(=O)N2C[C@@H](C)[C@@H](n3nc(CC(=O)O)c4ccccc43)C2)cn1: > 7.00
- CC(C)Oc1ccc(S(=O)(=O)N2C[C@@H](C)[C@@H](n3nc(CC(=O)O)c4ccc(F)cc43)C2)c(C#N)c1: > 7.00
- COc1ccc(S(=O)(=O)N2C[C@@H](C)[C@@H](n3nc(CC(=O)O)c4ccccc43)C2)c(F)c1: > 7.00
- CC(C)Oc1ccc(S(=O)(=O)N2C[C@H](n3nc(CC(=O)O)c4ccc(F)cc43)C[C@@H]2C(F)F)cc1: > 7.00
- [2H]c1ccc2c(c1)c(CC(=O)O)nn2[C@H]1CN(S(=O)(=O)c2ccc(OCC)cc2)C[C@H]1C: > 7.00
- CCOc1ccc(S(=O)(=O)N2C[C@@H](C)[C@@H](n3nc(CC(=O)O)c4ccccc43)C2)c(CCO)c1: 5.30 to 7.00
